- ASSAY NAME: Drug level in rat brain at 30 mg/kg, po after 3 hrs
- Assay type: ADME, organism-based
- Design: dose 30 mg/kg, route oral
- CONDITION INFO: read-out: Activity
QUANTITY KIND: concentration at 3 h (nM)

• CC(C)(C)NC(=O)Cn1c(-c2ccc(OC(F)(F)F)cc2)cc2cc(C(C)(C)C(=O)NC(C)(C)C)ccc21 = 170

---

- ASSAY NAME: Oral bioavailability in dog at 3 mg/kg
- Type: ADME, organism-based, Canis lupus familiaris
- CONDITION INFO: in vivo
QUANTITY KIND: bioavailability (%)

* CC(C)(C)NC(=O)Cn1c(-c2ccc(OC(F)(F)F)cc2)cc2cc(C(C)(C)C(=O)NC(C)(C)C)ccc21 | 18

---

- ASSAY NAME: Half life in dog at 1 mg/kg, iv and 3 mg/kg, po
- Type: ADME, organism-based, Canis lupus familiaris
- CONDITION INFO: in vivo
QUANTITY KIND: half-life (h)

- CC(C)(C)NC(=O)Cn1c(-c2ccc(OC(F)(F)F)cc2)cc2cc(C(C)(C)C(=O)NC(C)(C)C)ccc21: 4.6

---

- TARGET OF ASSAY: Cytochrome P450 2D6 (Homo sapiens)
- Sequence (P10635 whole entry): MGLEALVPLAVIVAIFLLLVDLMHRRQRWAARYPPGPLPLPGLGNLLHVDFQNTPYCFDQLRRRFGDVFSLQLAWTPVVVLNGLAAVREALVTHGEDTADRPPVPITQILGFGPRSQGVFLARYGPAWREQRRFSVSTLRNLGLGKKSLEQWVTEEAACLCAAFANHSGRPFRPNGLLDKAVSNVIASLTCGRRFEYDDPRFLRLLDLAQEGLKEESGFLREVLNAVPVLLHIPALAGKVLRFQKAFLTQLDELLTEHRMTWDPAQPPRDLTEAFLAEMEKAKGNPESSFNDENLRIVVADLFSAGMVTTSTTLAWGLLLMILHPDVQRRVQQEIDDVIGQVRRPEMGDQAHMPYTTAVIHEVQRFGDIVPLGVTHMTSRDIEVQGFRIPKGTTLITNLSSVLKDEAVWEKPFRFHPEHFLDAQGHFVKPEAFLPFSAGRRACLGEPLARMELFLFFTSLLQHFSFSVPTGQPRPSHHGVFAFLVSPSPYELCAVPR
QUANTITY KIND: IC50

• CC(C)(C)NC(=O)Cn1c(-c2ccc(OC(F)(F)F)cc2)cc2cc(C(C)(C)C(=O)NC(C)(C)C)ccc21 = > 10 µM

---

- ASSAY NAME: Plasma clearance in rat at 1 mg/kg, iv and 3 mg/kg, po
- Type: ADME, organism-based
Measured clearance of individual entries
QUANTITY KIND: clearance

* CC(C)(C)NC(=O)Cn1c(-c2ccc(OC(F)(F)F)cc2)cc2cc(C(C)(C)C(=O)NC(C)(C)C)ccc21 | 64 mL/min/kg
* CC(C)(C)NC(=O)Cn1c(-c2cccc(OC(F)(F)F)c2)cc2cc(C(C)(C)C(=O)NC(C)(C)C)ccc21 | 11 mL/min/kg
* CC(C)(C)NC(=O)Cn1c(-c2ccccc2OC(F)(F)F)cc2cc(C(C)(C)C(=O)NC(C)(C)C)ccc21 | 21 mL/min/kg

---

- ASSAY NAME: Plasma clearance in dog at 1 mg/kg, iv and 3 mg/kg, po
- Format: ADME, organism-based, Canis lupus familiaris
QUANTITY KIND: clearance

* CC(C)(C)NC(=O)Cn1c(-c2ccc(OC(F)(F)F)cc2)cc2cc(C(C)(C)C(=O)NC(C)(C)C)ccc21 | 5.6 mL/min/kg

---

- TARGET OF ASSAY: Voltage-dependent N-type calcium channel subunit alpha-1B (Homo sapiens, UniProt Q00975)
- Sequence (Q00975 whole entry): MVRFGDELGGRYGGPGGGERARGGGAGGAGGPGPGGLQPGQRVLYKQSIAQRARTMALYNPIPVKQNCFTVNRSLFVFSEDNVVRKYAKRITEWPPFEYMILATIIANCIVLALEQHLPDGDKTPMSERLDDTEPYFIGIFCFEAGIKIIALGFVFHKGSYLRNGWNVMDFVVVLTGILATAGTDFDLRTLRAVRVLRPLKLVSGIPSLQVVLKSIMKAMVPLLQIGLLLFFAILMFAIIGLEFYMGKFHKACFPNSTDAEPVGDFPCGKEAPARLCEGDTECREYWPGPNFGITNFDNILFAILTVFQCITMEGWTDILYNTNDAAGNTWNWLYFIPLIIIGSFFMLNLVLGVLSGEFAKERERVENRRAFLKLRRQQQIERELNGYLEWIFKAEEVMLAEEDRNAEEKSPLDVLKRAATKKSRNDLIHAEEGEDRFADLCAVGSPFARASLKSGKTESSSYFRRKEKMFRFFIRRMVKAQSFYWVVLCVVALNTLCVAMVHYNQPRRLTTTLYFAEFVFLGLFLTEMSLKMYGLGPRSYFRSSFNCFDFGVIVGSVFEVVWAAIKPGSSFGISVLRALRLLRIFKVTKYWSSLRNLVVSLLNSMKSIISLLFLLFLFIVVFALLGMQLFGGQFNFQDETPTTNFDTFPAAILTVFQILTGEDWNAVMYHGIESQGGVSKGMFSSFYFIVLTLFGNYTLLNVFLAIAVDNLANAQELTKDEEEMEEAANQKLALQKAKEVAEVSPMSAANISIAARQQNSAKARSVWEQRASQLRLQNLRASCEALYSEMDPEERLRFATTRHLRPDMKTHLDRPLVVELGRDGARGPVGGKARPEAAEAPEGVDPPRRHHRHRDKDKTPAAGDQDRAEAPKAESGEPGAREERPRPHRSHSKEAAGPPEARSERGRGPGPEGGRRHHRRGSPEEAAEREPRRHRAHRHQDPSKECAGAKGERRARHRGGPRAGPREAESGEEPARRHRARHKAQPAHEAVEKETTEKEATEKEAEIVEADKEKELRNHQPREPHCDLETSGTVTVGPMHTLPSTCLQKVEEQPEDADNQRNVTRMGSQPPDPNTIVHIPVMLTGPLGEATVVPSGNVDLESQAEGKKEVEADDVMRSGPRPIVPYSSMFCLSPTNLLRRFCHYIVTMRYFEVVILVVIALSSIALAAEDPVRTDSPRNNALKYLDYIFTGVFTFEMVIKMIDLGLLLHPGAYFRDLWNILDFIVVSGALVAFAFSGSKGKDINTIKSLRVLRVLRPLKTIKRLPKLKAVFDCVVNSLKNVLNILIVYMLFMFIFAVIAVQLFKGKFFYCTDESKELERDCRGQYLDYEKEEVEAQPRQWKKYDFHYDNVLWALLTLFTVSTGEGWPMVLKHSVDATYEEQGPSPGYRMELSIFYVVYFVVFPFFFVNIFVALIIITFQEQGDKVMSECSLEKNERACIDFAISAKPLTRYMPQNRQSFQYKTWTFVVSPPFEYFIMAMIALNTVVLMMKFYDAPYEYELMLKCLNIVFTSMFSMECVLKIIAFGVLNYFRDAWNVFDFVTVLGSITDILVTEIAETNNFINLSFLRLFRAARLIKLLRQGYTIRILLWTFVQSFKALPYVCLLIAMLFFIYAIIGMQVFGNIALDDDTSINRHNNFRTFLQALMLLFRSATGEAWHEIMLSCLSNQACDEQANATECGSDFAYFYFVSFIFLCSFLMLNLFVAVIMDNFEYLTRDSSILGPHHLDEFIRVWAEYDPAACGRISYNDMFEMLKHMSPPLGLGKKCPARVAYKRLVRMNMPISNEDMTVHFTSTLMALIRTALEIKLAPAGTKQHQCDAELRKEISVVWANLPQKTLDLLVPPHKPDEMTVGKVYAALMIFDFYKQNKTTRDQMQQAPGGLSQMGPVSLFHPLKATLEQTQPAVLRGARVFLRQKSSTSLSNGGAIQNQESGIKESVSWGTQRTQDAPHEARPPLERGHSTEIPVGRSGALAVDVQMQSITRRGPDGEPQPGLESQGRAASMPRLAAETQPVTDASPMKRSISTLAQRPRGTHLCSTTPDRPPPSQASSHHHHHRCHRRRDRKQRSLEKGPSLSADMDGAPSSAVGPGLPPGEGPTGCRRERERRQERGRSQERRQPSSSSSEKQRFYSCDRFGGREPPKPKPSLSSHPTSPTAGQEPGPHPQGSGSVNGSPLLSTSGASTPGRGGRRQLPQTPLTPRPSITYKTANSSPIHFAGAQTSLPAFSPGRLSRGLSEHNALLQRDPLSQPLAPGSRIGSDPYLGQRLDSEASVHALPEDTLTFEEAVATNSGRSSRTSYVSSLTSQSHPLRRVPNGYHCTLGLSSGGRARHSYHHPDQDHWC
- ASSAY NAME: Blockade of Cav2.2 channel by fluorescent calcium-influx assay
Returns: string. Value is criterion met if measured IC50 is below 900 nM, and criterion not met if it is greater than or equal to it.

- Cc1cc(C)cc(-c2cc3cc(C(=O)NC(C)(C)C)ccc3n2CC(C)O)c1 (stereo not given): criterion met
- Cc1cc(C)cc(-c2cc3cc(C(C)(C)C(=O)NC(C)(C)C)ccc3n2CC(=O)OC(C)(C)C)c1: criterion met
- Cc1cc(C)cc(-c2cc3cc(C(C)(C)C(=O)NC(C)(C)C)ccc3n2Cc2c(C)noc2C)c1: criterion met
- Cc1cc(C)cc(-c2cc3cc(C(C)(C)C(=O)NCC(F)(F)F)ccc3n2CC(C)O)c1 (stereo not given): criterion not met
- CCOC(=O)C(C)(C)c1ccc2c(c1)c([C@H](C)CO)c(-c1cc(C)cc(C)c1)n2C(=O)OC(C)(C)C: criterion met
- COCCn1c(-c2cc(C)cc(C)c2)cc2cc(C(C)(C)C(=O)NC(C)(C)C)ccc21: criterion met
- Cc1cc(C)cc(-c2cc3cc(C(C)(C)C(=O)NC(C)(C)C)ccc3n2CC(=O)NC(C)(C)C)c1: criterion met
- Cc1cc(C)cc(-c2cc3cc(C(C)(C)C(=O)N(C)C)ccc3n2CC(C)O)c1 (stereo not given): criterion met
- Cc1cc(C)cc(-c2cc3cc(C(C)(C)C(=O)NC4CC4)ccc3n2CC(C)O)c1 (stereo not given): criterion not met
